Molecular target: hERG (Homo sapiens)
Construct: host or cells: CHO (hERG-CHO)
Sequence (Q12809 whole entry): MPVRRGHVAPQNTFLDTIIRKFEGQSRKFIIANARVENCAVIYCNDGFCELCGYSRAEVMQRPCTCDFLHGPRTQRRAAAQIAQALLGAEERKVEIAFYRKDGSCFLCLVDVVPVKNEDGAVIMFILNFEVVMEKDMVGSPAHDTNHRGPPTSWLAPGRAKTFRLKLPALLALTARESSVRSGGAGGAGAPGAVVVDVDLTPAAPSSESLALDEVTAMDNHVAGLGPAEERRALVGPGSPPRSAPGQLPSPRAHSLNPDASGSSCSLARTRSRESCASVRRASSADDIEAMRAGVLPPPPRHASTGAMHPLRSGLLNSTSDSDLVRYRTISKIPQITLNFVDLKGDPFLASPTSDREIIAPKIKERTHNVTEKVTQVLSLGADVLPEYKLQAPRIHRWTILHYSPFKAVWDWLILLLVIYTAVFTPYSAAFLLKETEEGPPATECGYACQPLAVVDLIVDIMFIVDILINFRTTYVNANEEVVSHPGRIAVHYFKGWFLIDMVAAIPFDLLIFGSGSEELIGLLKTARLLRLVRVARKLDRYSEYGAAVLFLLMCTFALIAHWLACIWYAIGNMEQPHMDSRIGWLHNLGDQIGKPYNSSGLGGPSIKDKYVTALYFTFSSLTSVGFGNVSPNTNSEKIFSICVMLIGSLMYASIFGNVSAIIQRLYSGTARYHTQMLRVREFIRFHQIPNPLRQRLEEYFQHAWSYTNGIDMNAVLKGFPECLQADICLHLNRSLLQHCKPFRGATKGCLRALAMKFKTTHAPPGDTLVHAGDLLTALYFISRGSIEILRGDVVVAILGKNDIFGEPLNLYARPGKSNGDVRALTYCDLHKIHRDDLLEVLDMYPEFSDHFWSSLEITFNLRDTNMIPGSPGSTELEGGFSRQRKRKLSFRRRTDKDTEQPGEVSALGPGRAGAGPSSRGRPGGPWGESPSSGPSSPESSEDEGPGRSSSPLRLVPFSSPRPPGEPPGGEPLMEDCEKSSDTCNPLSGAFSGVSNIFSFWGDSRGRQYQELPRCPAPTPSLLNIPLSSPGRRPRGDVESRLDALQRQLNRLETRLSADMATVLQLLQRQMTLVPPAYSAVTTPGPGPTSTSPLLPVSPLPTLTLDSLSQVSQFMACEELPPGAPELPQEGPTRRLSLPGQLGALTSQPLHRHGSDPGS
Assay: CiPA hERG QPatch assay (hERG-CHO automated patch-clamp)
Format: cell-based
Settings: human, CHO cells expressing hERG (hERG-CHO); 1 μM; read-out: % inhibition of tail current in hERG-CHO
Excerpt: After whole cell configuration is achieved, the cell is held at −80 mV. A 500 ms pulse to −40 mV is delivered to measure the leaking current, which is subtracted from the tail current online. Then, the cell is depolarized to +40 mV for 500 ms and then to −80 mV over a 100 ms ramp to elicit the hERG tail current. […] The parameters measured were the maximum tail current evoked on stepping to 40 mV and ramping back to −80 mV from the test pulse. […]
Test readout: inhibition at 1 µM (%)
Express the result in % but write the number alone.

Qu. Any idea what its inhibition at 1 µM is? The molecule is c1ccc(C2(c3ccccc3)OC[C@H](CNCCOc3ccccc3-c3ccncc3)O2)cc1 [(S)-1]
Ans. 5.61

* * *

Biological target: 5-HT1AR (Rattus norvegicus, UniProt P19327)
Construct: from tissue; hippocampus per the main-text methods
Experiment: Effect of WAY100635 on compound-stimulated [35S]GTPγS binding (Tables SI-1, SI-2)
Format: biochemical
Details: Table SI-1; rat frontal cortex homogenates; read-out: pEC50 ± SEM, compound alone (converted)
Protocol: The [^35S]GTPγS assay was performed according to the method described previously.[49] […] Nonspecific binding was determined with 100 μM of unlabeled GTPγS. The reaction mixture was incubated for 90 min at 36 °C in a volume of 250 μL. […] The radioactivity was counted in a Trilux MicroBeta^2 counter (PerkinElmer, USA). The data were analyzed with GraphPad Prism 5.0 software (GraphPad Software, San Diego California USA, www.graphpad.com). […] WAY).) Results were expressed as means ± SEM. […]
Binary call on EC50 with cut-off 60 nM: strictly below means rule met, and equality or higher means rule not met.

Qu. # TODO verify EC50 < 60 nM strictly for this molecule: Cn1cncc1-c1ccccc1OCCNCC1COC(c2ccccc2)(c2ccccc2)O1 (racemic)
Ans. rule met

Qu. # TODO verify EC50 < 60 nM strictly for this molecule: Cn1cncc1-c1ccccc1OCCNC[C@@H]1COC(c2ccccc2)(c2ccccc2)O1 [(R)-2]
Ans. rule not met

Qu. # TODO verify EC50 < 60 nM strictly for this molecule: c1ccc(C2(c3ccccc3)OC[C@H](CNCCOc3ccccc3-c3ccncc3)O2)cc1 [(S)-1]
Ans. rule met

Qu. # TODO verify EC50 < 60 nM strictly for this molecule: c1ccc(C2(c3ccccc3)OCC(CNCCOc3ccccc3-c3ccncc3)O2)cc1 (racemic)
Ans. rule not met

Qu. # TODO verify EC50 < 60 nM strictly for this molecule: c1ccc(C2(c3ccccc3)OC[C@@H](CNCCOc3ccccc3-c3ccncc3)O2)cc1 [(R)-1]
Ans. rule not met

Qu. # TODO verify EC50 < 60 nM strictly for this molecule: Cn1cncc1-c1ccccc1OCCNC[C@H]1COC(c2ccccc2)(c2ccccc2)O1 [(S)-2]
Ans. rule met

* * *

Target: 5-HT1AR (Rattus norvegicus, UniProt P19327)
Construct: from tissue; hippocampus per the main-text methods
Sequence (P19327 1-422): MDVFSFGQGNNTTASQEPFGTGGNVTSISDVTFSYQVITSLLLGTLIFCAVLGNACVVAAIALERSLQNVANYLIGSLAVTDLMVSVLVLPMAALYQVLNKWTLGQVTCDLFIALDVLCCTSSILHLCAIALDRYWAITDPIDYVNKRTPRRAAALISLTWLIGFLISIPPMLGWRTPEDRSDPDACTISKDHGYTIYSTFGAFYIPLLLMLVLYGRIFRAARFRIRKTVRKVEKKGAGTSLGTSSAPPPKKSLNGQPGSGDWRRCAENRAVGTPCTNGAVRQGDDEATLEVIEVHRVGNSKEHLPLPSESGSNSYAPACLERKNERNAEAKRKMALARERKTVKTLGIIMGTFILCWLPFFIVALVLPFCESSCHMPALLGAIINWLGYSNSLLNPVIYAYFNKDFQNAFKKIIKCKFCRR
Experiment: [35S]GTPγS functional 5-HT1A assay in rat hippocampal membranes
Assay type: biochemical
Settings: [35S]GTPγS functional assay; read-out: EC50
Test readout: EC50 (nM)
Express the result in nM but write the number alone.

Qu. Any idea what its EC50 is? The molecule is c1ccc(C2(c3ccccc3)OCC(CNCCOc3ccccc3-c3ccncc3)O2)cc1 (racemic)
Ans. 92.1

* * *

Biological target: human 5-HT6 (Homo sapiens)
Construct: expressed in transfected cells
Sequence (P50406 whole entry): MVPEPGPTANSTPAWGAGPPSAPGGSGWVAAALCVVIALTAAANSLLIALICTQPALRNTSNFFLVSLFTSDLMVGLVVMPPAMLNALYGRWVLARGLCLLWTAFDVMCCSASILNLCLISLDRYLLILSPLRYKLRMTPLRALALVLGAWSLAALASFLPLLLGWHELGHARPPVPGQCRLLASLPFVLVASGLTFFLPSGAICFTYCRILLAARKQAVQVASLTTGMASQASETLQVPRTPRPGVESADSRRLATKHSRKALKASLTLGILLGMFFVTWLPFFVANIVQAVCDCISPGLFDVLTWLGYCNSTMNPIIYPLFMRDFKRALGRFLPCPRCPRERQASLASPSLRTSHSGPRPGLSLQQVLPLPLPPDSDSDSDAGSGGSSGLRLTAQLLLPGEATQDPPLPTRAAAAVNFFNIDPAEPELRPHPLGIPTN
Assay: Radioligand binding at 5-HT6 in transfected HEK293 cells
Details: transfected HEK293 cells; [3H]-LSD; read-out: 5-HT6 pKi ± SEM (converted)
Test readout: Ki (µM)
Express the result in µM but write the number alone.

Qu. Any idea what its Ki is? The molecule is c1ccc(C2(c3ccccc3)OCC(CNCCOc3ccccc3-c3ccncc3)O2)cc1 (racemic)
Ans. 7.59

Qu. Any idea what its Ki is? The molecule is Cn1cncc1-c1ccccc1OCCNC[C@H]1COC(c2ccccc2)(c2ccccc2)O1 [(S)-2]
Ans. 5.5

Qu. Any idea what its Ki is? The molecule is Cn1cncc1-c1ccccc1OCCNCC1COC(c2ccccc2)(c2ccccc2)O1 (racemic)
Ans. 5.01

Qu. Any idea what its Ki is? The molecule is c1ccc(C2(c3ccccc3)OC[C@@H](CNCCOc3ccccc3-c3ccncc3)O2)cc1 [(R)-1]
Ans. 4.27

Qu. Any idea what its Ki is? The molecule is c1ccc(C2(c3ccccc3)OC[C@H](CNCCOc3ccccc3-c3ccncc3)O2)cc1 [(S)-1]
Ans. 3.24

Qu. Any idea what its Ki is? The molecule is Cn1cncc1-c1ccccc1OCCNC[C@@H]1COC(c2ccccc2)(c2ccccc2)O1 [(R)-2]
Ans. 5.01

* * *

Target: 5-HT1AR (Rattus norvegicus)
Construct: from tissue; hippocampus per the main-text methods
Sequence (P19327 1-422): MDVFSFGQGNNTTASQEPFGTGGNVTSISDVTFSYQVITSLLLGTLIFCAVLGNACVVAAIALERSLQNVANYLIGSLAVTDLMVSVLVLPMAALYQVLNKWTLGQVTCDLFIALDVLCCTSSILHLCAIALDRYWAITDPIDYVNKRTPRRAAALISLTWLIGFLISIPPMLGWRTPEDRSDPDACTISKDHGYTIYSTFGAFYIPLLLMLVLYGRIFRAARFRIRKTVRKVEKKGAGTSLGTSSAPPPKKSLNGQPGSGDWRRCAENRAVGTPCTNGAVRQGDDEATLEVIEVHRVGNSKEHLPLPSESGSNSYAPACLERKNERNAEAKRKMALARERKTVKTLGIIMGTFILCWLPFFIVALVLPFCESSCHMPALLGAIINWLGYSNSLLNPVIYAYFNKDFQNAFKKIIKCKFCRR
Test: Effect of WAY100635 on compound-stimulated [35S]GTPγS binding (Tables SI-1, SI-2)
Assay type: biochemical
Conditions: Table SI-1; with WAY100635 10^-7 M vs agonist alone
Would you mind telling me the reported shift ratio of each entry?
API doc: respond with a numeric literal and nothing else, no unit.

Qu. Any idea what its shift ratio is? The compound is c1ccc(C2(c3ccccc3)OC[C@H](CNCCOc3ccccc3-c3ccncc3)O2)cc1 [(S)-1]
Ans. 39.8

Qu. Any idea what its shift ratio is? The compound is Cn1cncc1-c1ccccc1OCCNC[C@H]1COC(c2ccccc2)(c2ccccc2)O1 [(S)-2]
Ans. 25.1

Qu. Any idea what its shift ratio is? The compound is Cn1cncc1-c1ccccc1OCCNC[C@@H]1COC(c2ccccc2)(c2ccccc2)O1 [(R)-2]
Ans. 19.9

Qu. Any idea what its shift ratio is? The compound is c1ccc(C2(c3ccccc3)OC[C@@H](CNCCOc3ccccc3-c3ccncc3)O2)cc1 [(R)-1]
Ans. 10.0

Qu. Any idea what its shift ratio is? The compound is Cn1cncc1-c1ccccc1OCCNCC1COC(c2ccccc2)(c2ccccc2)O1 (racemic) [rac-2]
Ans. 31.6

Qu. Any idea what its shift ratio is? The compound is c1ccc(C2(c3ccccc3)OCC(CNCCOc3ccccc3-c3ccncc3)O2)cc1 (racemic) [rac-1]
Ans. 6.3

* * *

Target: 5-HT2AR (Rattus norvegicus)
Construct: from tissue; host or cells: frontal cortex of male Sprague-Dawley rats
Sequence (P14842 whole entry): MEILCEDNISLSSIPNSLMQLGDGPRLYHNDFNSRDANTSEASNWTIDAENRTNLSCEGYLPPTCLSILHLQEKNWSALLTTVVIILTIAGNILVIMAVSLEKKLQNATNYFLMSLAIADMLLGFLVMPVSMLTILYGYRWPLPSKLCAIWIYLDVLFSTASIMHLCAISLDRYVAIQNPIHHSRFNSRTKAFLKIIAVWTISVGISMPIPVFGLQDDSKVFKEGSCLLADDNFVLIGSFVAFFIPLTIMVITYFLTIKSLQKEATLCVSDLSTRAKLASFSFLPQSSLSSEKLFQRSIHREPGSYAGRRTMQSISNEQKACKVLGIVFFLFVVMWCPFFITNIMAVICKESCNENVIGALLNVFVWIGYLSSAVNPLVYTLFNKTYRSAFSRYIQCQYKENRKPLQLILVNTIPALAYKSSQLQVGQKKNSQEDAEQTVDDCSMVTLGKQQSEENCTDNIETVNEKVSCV
Assay: Radioligand binding at 5-HT2A on rat frontal cortex membranes
Settings: read-out: 5-HT2A pKi ± SEM (converted)
Description: Male Sprague–Dawley rats were decapitated and their brains removed and placed on ice. […] The 5-HT2A assay was performed according to a previously described protocol with some modifications.[48] […] Nonspecific binding was determined in the presence of 10 μM mianserin. […] The filter-bound radioactivity was counted in a MicroBeta^2 Microplate Counter. Curves were fitted with a one-site sigmoidal dose–response equation and pKi for each compound was calculated with the Cheng-Pursoff equation. […]
Test readout: Ki (nM)
Express the result in nM but write the number alone.

Qu. Any idea what its Ki is? The compound is c1ccc(C2(c3ccccc3)OC[C@@H](CNCCOc3ccccc3-c3ccncc3)O2)cc1 [(R)-1]
Ans. 1580

Qu. Any idea what its Ki is? The compound is c1ccc(C2(c3ccccc3)OC[C@H](CNCCOc3ccccc3-c3ccncc3)O2)cc1 [(S)-1]
Ans. 794

Qu. Any idea what its Ki is? The compound is c1ccc(C2(c3ccccc3)OCC(CNCCOc3ccccc3-c3ccncc3)O2)cc1 (racemic)
Ans. 1120

Qu. Any idea what its Ki is? The compound is Cn1cncc1-c1ccccc1OCCNC[C@H]1COC(c2ccccc2)(c2ccccc2)O1 [(S)-2]
Ans. 1000

Qu. Any idea what its Ki is? The compound is Cn1cncc1-c1ccccc1OCCNC[C@@H]1COC(c2ccccc2)(c2ccccc2)O1 [(R)-2]
Ans. 891

Qu. Any idea what its Ki is? The compound is Cn1cncc1-c1ccccc1OCCNCC1COC(c2ccccc2)(c2ccccc2)O1 (racemic)
Ans. 417

Values were extracted from paper PMC8016166.
